Assay: yeast display, Sf9 membrane polyspecificity reagent, FACS + sequencing; frameworks hold sequencing errors
quantity.measured: polyreactivity (PSR sort gate)

Answered cases to consult:
INSERT INTO measurements (sequence_entry, recorded_measurement) VALUES
  ('QVQLVESAGGLVQAGGSLRLSCGASGRIFGWYALGWSRQAPGKERQLVAAITRSGGSTFYADSVKGRFTISRDNAKNTVYLQMHSLKPDDTAVYYCNARYFNGRHKHYYWGQGTQVTVSS', 'high polyreactivity'),
  ('QVQLVESGGGLVQAGGSLRLSCAASGSTIVRYVMGWYRQAPGKERELVAAISRRGGSTYYADSVKGRFTISRDNAKNTVYLQMNSLKPEDTAVYYCARTVGYRTLLESDSWGQGTQVTVSS', 'high polyreactivity'),
  ('QVQLVESGGGLVQAGGSLRLSCAASGFIFEGYAMGWYRQAPGKERELVATISRSGGRTNYADSVKGRFTISRDNAKNTVYLQMNSLKPEDTAVYYCAAAYLRRVAYDYWGQGTQVTVSS', 'high polyreactivity'),
  ('QVQLVESGGGLVQAGGSLRLSCAASGRTFSYYAMGWYRQAPGKERELVAAIYRAGRTNYADSVKGRFTISRDNAKNNVYLQMHSLKPEDTAVYYCAADLAYGRPFVSYRTRACGQGTQVTVSS', 'high polyreactivity'),
  ('QVQLVESGGGLVQAGGSLRLSCAASGSIFFYNTMGWYRQAPGKERELVAAISASGGRTYYADSVKGRFTISRDNAKNTVYLQMISLKPEDTAVYYCAVRVPYRGYTRYDYWGQGTQVTVSS', 'high polyreactivity'),
  ('QVQLVESGGGLVQAGGSLRLSCAASGFTCKYYAMGWYRQAPGKERELVASINWSGGRTSYADSVKGRFTISRDNAKNTVYLQMNSLKREDTAVYYCARTPAGRGEYWGQGSQVTVSS', 'low polyreactivity'),
  ('QVQLVESGGGLVQAGGSLRLSCAASGSIFKPYAMGWSRQAPGKERELVAAISRSGSTYYADSVKGRFTISRDNAKNTVYLQMNSLKPEDTAVYYCAKDVRPNYYAAFNYWGQGTQVTVSS', 'low polyreactivity'),
  ('QVQLVESGGGLVQAGGSLRLSCAASGFTFTYNAMGWYRQAPGKERELVAAITLSGGSTYADSVKGRFTISRDNAKNTVYLQMNSLKPEDTAVYYCNADAGVYSANATDGYDYWGQGTQVTVSS', 'low polyreactivity'),
  ('QVQLVESGGGLVQAGGSLRLSCAASGSIFVVYAMGWYRQAPGKEREMVAVISNGGTTNYADSVKGRFTISRDNAKNTVYLQMNSLKPEDTAVYYCAKASSRRYWTIRDGDYWGQGTQVTVSS', 'low polyreactivity'),
  ('QVLLVEAGGGLVHAGGSLRLSCAASGLIFGYYAMRWYRQAPWKERELVAAISFSGGSSYYADSVKGRFTISRDNAKNTDSLQMNSLKPEDTAVYYCAADLDGSSEYEYWGQGTQVNVSS', 'low polyreactivity');

Now for a further sequence.
# input sequence: `QVQLVESGGGLVQAGGSLRLSCAASGRIFYSYAMGWYRQAPGKERELVAGINWRGSNTYYADSVKGRFTISRDNAKNTVYLQINSLKPEDTAVYYCKAGRRQDYRYNYWGQGTQVTVSS` ; wanted: its polyreactivity (PSR sort gate)
high polyreactivity
